Biological target: human recombinant GST-PAK1-KD protein (Homo sapiens, UniProt Q13153)
Construct: residues #249-545 of human PAK1, UniProtKP/Swiss Q13153; His6 (N); made in house; host or cells: Sf9 insect cells, pAcGP67 baculovirus expression vector
Sequence (Q13153 249-545): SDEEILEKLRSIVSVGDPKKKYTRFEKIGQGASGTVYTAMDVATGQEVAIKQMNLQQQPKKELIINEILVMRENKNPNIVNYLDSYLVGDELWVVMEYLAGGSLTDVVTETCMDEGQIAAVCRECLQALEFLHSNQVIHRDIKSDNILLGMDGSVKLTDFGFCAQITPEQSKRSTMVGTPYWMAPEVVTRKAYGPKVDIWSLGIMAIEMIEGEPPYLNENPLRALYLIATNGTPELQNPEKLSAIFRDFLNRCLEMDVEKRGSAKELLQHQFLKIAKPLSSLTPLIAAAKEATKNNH
Assay: GST-PAK1-KD (kinase domain) biochemical assay, microfluidic mobility shift
Settings: Table I, PAK1 Ki class; read-out: Ki
pKi: −log10 of the molar value. Where a name gives a salt, the structure may show the parent alone.
Measurement Label: pKi

Examples with answers:
[
  {
    "Compound": "Cc1cc(Nc2cc(C3CC3)[nH]n2)nc(NCc2cc(F)cc3[nH]ccc23)n1 [I-89, Formate]",
    "Measured Target": "human recombinant GST-PAK1-KD protein (Homo sapiens, UniProt Q13153)",
    "Measurement Label": "pKi",
    "Endpoint Result": "6.00 to 6.60"
  },
  {
    "Compound": "Clc1c(CNc2nccc(Nc3cc(C4CC4)[nH]n3)n2)ccc2[nH]ccc12 [I-20]",
    "Measured Target": "human recombinant GST-PAK1-KD protein (Homo sapiens, UniProt Q13153)",
    "Measurement Label": "pKi",
    "Endpoint Result": "6.60 to 7.30"
  },
  {
    "Compound": "FC(F)(F)c1cc(Nc2cc(C3CC3)[nH]n2)nc(NCc2cccc3[nH]ccc23)n1 [I-41]",
    "Measured Target": "human recombinant GST-PAK1-KD protein (Homo sapiens, UniProt Q13153)",
    "Measurement Label": "pKi",
    "Endpoint Result": "6.00 to 6.60"
  },
  {
    "Compound": "C[C@H](Nc1nccc(Nc2cc(C3CC3)[nH]n2)n1)c1cccc2[nH]ccc12 [I-98]",
    "Measured Target": "human recombinant GST-PAK1-KD protein (Homo sapiens, UniProt Q13153)",
    "Measurement Label": "pKi",
    "Endpoint Result": "> 7.30"
  },
  {
    "Compound": "CC(C)(O)c1cc(Nc2cc(C3CC3)[nH]n2)nc(NCc2cccc3[nH]ccc23)n1 [I-85]",
    "Measured Target": "human recombinant GST-PAK1-KD protein (Homo sapiens, UniProt Q13153)",
    "Measurement Label": "pKi",
    "Endpoint Result": "6.60 to 7.30"
  }
]

Reported pKi for c1ccc([C@@H]2C[C@H]2c2cc(Nc3ccnc(NCc4cccc5[nH]ccc45)n3)n[nH]2)cc1 (racemic) [I-57] was 6.00 to 6.60

Per the record, Cc1cnc(N[C@@H](C)c2ccc3[nH]ccc3c2)nc1Nc1cc(C2CC2)[nH]n1 [I-31] has pKi of 6.00 to 6.60

// provenance: patent US8637537B2
